# target_under_test: adenosine kinase (Homo sapiens)
# assay_text: Inhibition of adenosine kinase in vitro
# Assay type: biochemical
# recorded_conditions: Table 1, read-out: IC50, Inhibition of Adenosine Kinase by Representative Compounds of the Invention
pIC50: −log10 of the molar value. Structures can show the parent of a compound that is named as a salt.
measured_endpoint: pIC50

A: COc1cccc(Cc2c(-c3cccs3)nc3ncnc(N)c3c2-c2cccc(Br)c2)c1 [Example 9, hydrochloride]
B: CCOC(=O)Cc1c(-c2cccs2)nc2ncnc(N)c2c1-c1cccc(Br)c1 [Example 8, hydrochloride]
Q) Which shows the larger pIC50 value: A or B ? Label of pick, please.
A) B
(B: 8.52, A: 7.64)

----------
# target_under_test: adenosine kinase (Homo sapiens)
pIC50: −log10 of the molar value. Where a name gives a salt, the structure may show the parent alone.
measured_endpoint: pIC50

Previously resolved entries follow.
compound	pIC50
COc1ccc(-c2c(-c3cccs3)nc3ncnc(N)c3c2-c2cc(Br)cs2)cc1OC [Example 11, hydrochloride]	9.52
COc1ccc(-c2c(-c3cccs3)nc3ncnc(N)c3c2-c2cccc(Cl)c2)cc1OC [Example 12, hydrochloride]	9.00

a: COCCN(C)c1ccc(-c2nc3ncnc(N)c3c(-c3ccccc3)c2-c2ccccc2)cc1 [Example 26, hydrochloride]
b: Nc1ncnc2nc(-c3ccc(N4CCOCC4)nc3)c(-c3ccccc3)c(-c3ccccc3)c12 [Example 40, hydrochloride]
Q) Of a and b , which shows the smaller pIC50 value? Label of pick, please.
A) a

----------
# target_under_test: adenosine kinase (Homo sapiens, UniProt P55263)
# Sequence (P55263 whole entry): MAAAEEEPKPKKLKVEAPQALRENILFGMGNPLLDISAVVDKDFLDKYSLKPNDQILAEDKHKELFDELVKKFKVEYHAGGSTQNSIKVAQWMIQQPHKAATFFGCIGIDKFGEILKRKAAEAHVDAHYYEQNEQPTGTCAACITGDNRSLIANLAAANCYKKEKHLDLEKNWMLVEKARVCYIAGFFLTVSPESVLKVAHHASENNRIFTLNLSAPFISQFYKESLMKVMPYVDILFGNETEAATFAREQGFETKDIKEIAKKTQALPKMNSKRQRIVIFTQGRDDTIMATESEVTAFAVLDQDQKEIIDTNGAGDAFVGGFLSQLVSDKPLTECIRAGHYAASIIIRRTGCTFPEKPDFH
pIC50: −log10 of the molar value. Counter-ions that a name gives are not always drawn.
measured_endpoint: pIC50

Previously resolved entries follow.
compound	measured_endpoint	reading
CN(C)c1ccc(-c2nc3ncnc(N)c3c(-c3ccccc3)c2-c2ccccc2)cc1.Cl.Cl [Example 27, dihydrochloride]	pIC50	8.05
CCc1c(-c2cccs2)nc2ncnc(N)c2c1-c1cccc(Br)c1	pIC50	8.52
Nc1ncnc2nc(-c3ccc(N4CCOCC4)nc3)c(-c3ccccc3)c(-c3cccc(Br)c3)c12 [Example 41, hydrochloride]	pIC50	8.70
CC(C)c1ccc(-c2c(-c3ccc(N(C)C)cc3)nc3ncnc(N)c3c2-c2ccc(C(C)C)cc2)cc1	pIC50	8.40

I: Nc1ncnc2nc(-c3ccc(N4CCOCC4)nc3)c(-c3ccc(F)cc3)c(-c3cccc(Br)c3)c12 [Example 39, hydrochloride]
II: COCCN(C)c1ccc(-c2nc3ncnc(N)c3c(-c3cc(Br)cs3)c2-c2ccc(OC)c(OC)c2)cc1.Cl [Example 19, hydrochloride]
Q) Of I and II , which shows the smaller pIC50 value? Label of pick, please.
A) I
